// data source = PubChem BioAssay AID248

- Test system: L1210 leukemia ip in BDF1 mice, survival T/C
- Assay details: NCI In Vivo Anticancer Drug Screen. Data for tumor model L1210 Leukemia (intraperitoneal) in B6D2F1 (BDF1) mice
- Condition description: endpoint: mean survival time; dose: 200.0 mg/kg/injection; schedule: Q01DX009 (ip); vehicle: Klucel (hydroxypropylcellulose) (HPC); higher = longer survival
Inconclusive results and toxic doses are left out.
Measured quantity: T/C

Below are 3 compounds. Give each one its T/C.
1. COC(=O)c1ccccc1N=Nc1cc(C)c(C)cc1O
2. CC1C(=O)/C(=C/N(C)c2ccccc2)CC1C(=O)O (configuration not stated)
3. CC1(Br)C(=O)NC(=O)NC1O (configuration not stated)

Reply:
1: 88 % of control; 2: 97 % of control; 3: 94 % of control

Batch request: T/C per item, same order as input.
1. CC(=O)Nc1ccc(NC(=O)NCCCl)cc1
2. CN(C)c1ccc(/C=C2\C=Cc3ccccc32)c(F)c1
3. COc1ccc(OC(=O)Nc2ccc(Cl)c(Cl)c2)cc1
4. ClC1(Cl)OC(Cl)(Cl)C(Cl)(Cl)OC1(Cl)Cl

Reply:
1. 89 % of control
2. 101 % of control
3. 106 % of control
4. 102 % of control
